- measurement-target: T1, oligopeptide TAGIFATYPSGHLDM (SEQ ID NO: 105)
- T1 construct: Synthetic peptide, part of Loop C of AQP3
- T1 peptide: TAGIFATYPSGHLDM
- test-name: ELISA on coated peptide
Measured binding signal (plate reader) accompanies every entry in the list below.
A bare number is all that is needed in reply.

Antibody J (antibody, mouse IgG2a, kappa, V domains shown, also called anti AQP3 antibody J) VH: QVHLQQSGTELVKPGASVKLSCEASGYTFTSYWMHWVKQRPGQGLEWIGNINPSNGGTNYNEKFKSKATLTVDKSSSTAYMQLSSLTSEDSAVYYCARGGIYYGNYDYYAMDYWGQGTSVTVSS VL: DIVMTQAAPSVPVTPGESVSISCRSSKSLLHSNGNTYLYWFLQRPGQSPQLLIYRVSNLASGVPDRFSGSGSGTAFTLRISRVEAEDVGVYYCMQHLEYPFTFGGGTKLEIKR    0.723
BC-B10 (IgG) (antibody, V domains shown, also called anti AQP3 antibody BC-B10) VH: QSVEESGGRLVTPGAPLTLTCTVSRFSLSSYAMTWVRQAPGKGLEWIGIINNDVISSTWYASWVKGRFTISKTSTTMELKMTSLTTEDTATYFCARGGTSGYDIWGPGTLVTVSS VL: AIKMTQTPSPVSAAVGGTVTINCQSSPSVYKNYLSWYQQKPGQPPKLLIYGASTLASGVPSRFKGSGSGTQFTLTISDVQCDDAATYYCAGGYIGSRDIFSFGGGTEVVVK    3.99

[in] binding signal (plate reader) lookup needed for Antibody C (antibody, mouse IgG2a, kappa, V domains shown, also called anti AQP3 antibody C) VH: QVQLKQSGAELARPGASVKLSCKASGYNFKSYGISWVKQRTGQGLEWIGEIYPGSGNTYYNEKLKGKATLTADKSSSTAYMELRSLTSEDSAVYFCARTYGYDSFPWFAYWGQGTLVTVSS VL: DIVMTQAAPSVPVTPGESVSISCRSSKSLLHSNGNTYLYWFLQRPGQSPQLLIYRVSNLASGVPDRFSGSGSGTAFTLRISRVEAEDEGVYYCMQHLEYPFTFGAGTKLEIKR , thanks.
[out] 2.81
